Each recorded value in this set is attributed to paper PMC4552634.

Test system: P. falciparum stage V gametocytes
Design: BacTiter-Glo ATP luminescence viability of purified stage V gametocytes in 384-well plates, per cent inhibition versus DMSO
Measurement Parameters: 48 h, 5 µM; inhibitor
Among all 13,000 compounds or so, about 3,200 (25%) showed an effect of 50% or more. The list shows a part of the results.
Value Type: % Inhibition
Give the value; after it, write the unit.

Please fill in: % Inhibition reported for O=C(/C=C/c1ccc(Cl)c(Cl)c1)NCC1CCC(CN2CCC(c3c[nH]c4ccccc34)CC2)CC1 (stereo not shown) = 1.039%

Please fill in: % Inhibition reported for CCc1ccc(NC(=O)c2ccc(CN3CCCN(Cc4cccs4)CC3)cc2)cc1 = -19.53%

Please fill in: % Inhibition reported for Cc1cc(NC(=O)Nc2ccc(Cl)cc2F)c2ccccc2n1 = -34.71%

Please fill in: % Inhibition reported for O=C(/C=C/c1ccc(Cl)c(Cl)c1)NCCC1CCC(N2CCC(c3c[nH]c4ccc(O)cc34)CC2)CC1 (stereo not shown) = -86.05%
